Data credit: patent US9050346B2

Biological target: UniProt:O60885
Experiment: TR-FRET bromodomain binding assay, BRD4 second bromodomain
pKi: −log10 of the molar value.
reported.property: pKi

compound	target.or.test.system	result
Cc1cc(-c2ccc(-c3[nH]c(C)c4c(=O)[nH]ncc34)cc2)[nH]n1 [Example 83]	UniProt:O60885	6.20

(I) Cc1[nH]c(-c2cc(S(C)(=O)=O)ccc2OCC2CC2)c2c1C(=O)NCC2 [Example 96]
(II) Cc1[nH]c(-c2ccccc2Oc2ccccc2)c2cc(C(=O)NCCN3CCOCC3)[nH]c(=O)c12 [Example 27]
(III) Cc1[nH]c(-c2ccccc2Oc2ccccc2)c2cc(-c3nc(-c4ccccc4)no3)[nH]c(=O)c12 [Example 46]
Task item: Could you please order the items by pKi, going from the lowest number to the highest? Form entry: ranked labels (order as requested).
Reply: III, I, II
(III: 5.91, I: 6.34, II: 7.33)

* * *

Target: UniProtKB O60885
Assay: TR-FRET bromodomain binding assay, BRD4 second bromodomain
reported.property: Ki (nM)

Cc1[nH]c(-c2ccccc2Oc2ccccc2)c2cn[nH]c(=O)c12 25.8
Cc1[nH]c(-c2cc(N)ccc2Oc2ccccc2)c2nc[nH]c(=O)c12 791
Cc1[nH]c(-c2ccccc2Oc2ccccc2)c2cc(-c3nc(-c4ccccn4)no3)[nH]c(=O)c12 78
Cc1[nH]c(-c2ccccc2Oc2ccccc2)c2cc(C(=O)O)[nH]c(=O)c12 546
COCc1cc2c(-c3ccccc3Oc3ccccc3)[nH]c(C)c2c(=O)[nH]1 424

(1) Cc1[nH]c(-c2ccccc2Oc2ccccc2)c2nc(C(=O)O)[nH]c(=O)c12
(2) Cc1[nH]c(-c2ccccc2Oc2ccccc2)c2cc(-c3nc(Cc4cccnc4)no3)[nH]c(=O)c12
Task item: // pick min by Ki: 1 , 2 Response format: the label of the selected entry.
Reply: 2

* * *

Biological target: BRD4 (BDI_K57-E168) (Homo sapiens)
Construct: BD1: amino acids K57-E168
Assay: TR-FRET bromodomain binding assay, BRD4 first bromodomain
Conditions: His-tagged BD1, 100 nM Alexa647 probe; Ki calculated from IC50; dilution protocol A-G
pKi: −log10 of the molar value.
reported.property: pKi

Answered examples (10):
molecule	pKi
CCOC(=O)c1nc2c(-c3ccccc3Oc3ccccc3)[nH]c(C)c2c(=O)[nH]1 [Example 87]	7.08
Cc1[nH]c(-c2cc(S(C)(=O)=O)ccc2OCC2CC2)c2c1C(=O)NCC2 [Example 96]	7.46
Cc1[nH]c(-c2ccccc2Oc2ccccc2)c2cc(-c3nc(-c4ccncc4)no3)[nH]c(=O)c12 [Example 45]	7.98
Cc1[nH]c(-c2ccccc2Oc2ccccc2)c2cc(C(=O)NCc3ccco3)[nH]c(=O)c12 [Example 31]	7.06
Cc1[nH]c(-c2ccccc2Oc2ccccc2)c2cc(-c3nc(C4CC4)no3)[nH]c(=O)c12 [Example 63]	7.36
Cc1[nH]c(-c2cc(CO)ccc2Oc2ccc(F)cc2F)c2c1C(=O)NCC2 [Example 103]	6.91
Cc1[nH]c(-c2cc(S(C)(=O)=O)ccc2Oc2ccc(F)cc2F)c2cc(C(N)=O)[nH]c(=O)c12 [Example 42]	7.65
CCOC(=O)c1cc2c(-c3cc(NS(C)(=O)=O)ccc3Oc3ccc(F)cc3F)[nH]c(C)c2c(=O)[nH]1 [Example 9]	8.47
Cc1[nH]c(-c2ccccc2Oc2ccccc2)c2cc(CO)[nH]c(=O)c12 [Example 18]	7.82
Cc1[nH]c(-c2ccccc2Oc2ccccc2)c2cc(C(=O)NC3CCOCC3)[nH]c(=O)c12 [Example 38]	7.78

(A) Cc1[nH]c(-c2ccccc2Oc2ccccc2)c2cc(C(=O)N3CCC(O)CC3)[nH]c(=O)c12 [Example 30]
(B) Cc1[nH]c(-c2ccccc2Oc2ccccc2)c2cc(C(=O)NCC3CNCC3(F)F)[nH]c(=O)c12 (stereo not shown) [Example 59]
(C) Cc1[nH]c(-c2ccccc2Oc2ccccc2)c2c1C(=O)NCC2 [Example 92]
(D) CCCc1noc(-c2cc3c(-c4ccccc4Oc4ccccc4)[nH]c(C)c3c(=O)[nH]2)n1 [Example 47]
(E) Cc1[nH]c(-c2ccccc2Oc2ccccc2)c2cc(C(=O)N[C@@H]3CCN(C)C3)[nH]c(=O)c12 [Example 51]
Task item: Order these by pKi, descending, and give the full ranking. # the answer lists labels in the order requested
Reply: B, E, C, A, D
(B: 8.44, E: 8.21, C: 7.85, A: 7.03, D: 6.28)
